Test system: SF-268 CNS
Assay Summary: NCI-60 one-dose screen, 48 h
Assay Context: 10 µM unless noted
The panel holds about 83,000 compounds, 20% with a hit somewhere; the sample as a whole holds those more often. Calls of active or inactive are those of the source. Rule for the calls: active = growth percent below 10; inactive = the rest.
Possible outcomes: active, inactive

Molecule	System	Classification
COc1ccc(C2CC(c3ccc4c(c3)OCO4)=Nc3c(N)ncnc3N2)cc1 (configuration not stated)	SF-268 CNS	inactive
CCCCCCCC/C=C\CCCCCCCCOc1ccccc1CC(=O)NCC[N+]1(C)CCCCC1	SF-268 CNS	inactive
CCOC(=O)/C=C/c1c(C)[nH]c(=O)[nH]c1=O	SF-268 CNS	inactive
CCNC(=O)Oc1ccc(/C(=C(/C)Cc2ccc(OC)cc2)c2ccc(OCCN3CCCCCC3)cc2)cc1	SF-268 CNS	inactive
Cn1cc(-c2nc(-c3c[nH]c4ccncc34)cs2)c2cc(Br)ccc21	SF-268 CNS	active
CCC/C(=N\NC(N)=O)C(OC)OC	SF-268 CNS	inactive
COc1cccc(/C=C/C(=O)c2cc3c(N)c(C(=O)Nc4ccccc4C)sc3nc2C)c1	SF-268 CNS	inactive
COc1cc(C2Cc3ncccc3-c3[nH]c(=O)c4cccnc4c32)cc(OC)c1OC (configuration not stated)	SF-268 CNS	inactive
Cc1ccc(N=Nc2c(N)nn(-c3ccccc3)c2N)cc1	SF-268 CNS	inactive
COc1ccc(C2=CN3CC=CCC3CC2=O)cc1 (configuration not stated)	SF-268 CNS	inactive
Nc1c(C(=O)Nc2ccncc2)sc2nc3c(cc12)CCCCC3	SF-268 CNS	inactive
CCCn1c(=S)sc2c1nc(C)n1c(Nc3ccccc3)nnc21	SF-268 CNS	inactive
O=c1nc(Nc2nc3ccccc3s2)[nH]c(=O)c2ccccc12	SF-268 CNS	inactive
COc1cc(C(=O)c2c(N)ncn2-c2ccccc2)cc(OC)c1OC	SF-268 CNS	inactive
COc1cc(N2C(=O)[C@H](c3ccccc3)C2c2ccc(SC)cc2)cc(OC)c1OC (some centres not stated)	SF-268 CNS	inactive
c1ccc(CNc2ccc3nc(CCC4CCCCC4)[nH]c3c2)cc1	SF-268 CNS	inactive
COc1ccc(C2=NN(C(=O)c3cc(OC)c(OC)c(OC)c3)C(c3ccc(N(C)C)cc3)C2)cc1 (configuration not stated)	SF-268 CNS	inactive
CNC(=O)c1cc(Oc2ccc3nc(NC(=O)Nc4ccc(Cl)c(Cl)c4)sc3c2)ccn1	SF-268 CNS	inactive
CC(C)CSc1oc(-c2ccccc2)nc1S(=O)(=O)c1ccccc1	SF-268 CNS	inactive
CCCCCCCCn1ccc2cc(NC(=O)Cn3cc(CN4CCN(CC)CC4)nn3)ccc21	SF-268 CNS	inactive
CCCCc1oc2ccccc2c1C(=O)c1ccc(O)cc1	SF-268 CNS	inactive
Cc1ccc(O)c(NC(=O)c2ccc(CNc3ccnc(C(F)(F)F)c3)cc2)c1	SF-268 CNS	inactive

###

Test system: OVCAR-5 ovarian
Assay Summary: NCI-60 one-dose screen, 48 h (100 = growth as untreated, 0 = no growth, -100 = all killed)
Assay Context: 10 µM unless noted
The panel holds about 83,000 compounds, 20% with a hit somewhere; the sample as a whole holds those more often.
Classification field: fulfilled = growth at or over 90%; not fulfilled = growth under 90%.

Molecule	Classification
Cn1cc(-c2ccc3cc(-c4ccc(CC(=O)Nc5cc(C(C)(C)C)on5)cc4)cnc3c2)cn1	not fulfilled
COP(=O)(OC)c1nnn(-c2cccc([N+](=O)[O-])c2)c1C	fulfilled
Fc1ccc2c(c1)c(-c1nc(-c3c[nH]c4ncccc34)cs1)cn2CCCN1CCOCC1	not fulfilled
O=C1CCC(C(=O)NN(c2ccccc2)c2ccccc2)N1 (stereo not given)	fulfilled
O=c1oc2c(cnc3ccccc32)cc1-c1cccs1	fulfilled
COc1ccc2nc3ccccc3c(NCc3ccccc3)c2c1	not fulfilled
COC(=O)C1=C(C(=O)Nc2cccnc2)C2OC1(C(Cc1ccccc1)Oc1ccccc1)C1OC21 (stereo not given)	not fulfilled
Cn1cccc1/C=C1\C(=O)Nc2ccccc21	not fulfilled
C=C(CO)[C@@H]1CC[C@]2(COC3CCCCO3)CC[C@]3(C)[C@H](CC[C@@H]4[C@@]5(C)C=C(C=O)C(=O)C(C)(C)[C@@H]5CC[C@]43C)[C@@H]12 (stereo not given in full)	not fulfilled
C=CCn1c(SCC(=O)Nc2ccc(C(=O)/C=C/c3ccc(OC)cc3)cc2)nnc1-c1ccccc1	not fulfilled
COc1cc2c(/C=C3\C(=O)Nc4ccccc43)c(C(=O)O)[nH]c2cc1C	not fulfilled
Cc1ccc(C)n1/C=C/n1c(C)ccc1C	fulfilled
COc1ccc2c(c1)c(-c1nonc1-c1c[nH]c3ccc(Br)cc13)cn2C	not fulfilled
CCN(CC)c1ccc(/C=C\c2cc(C)c3cc(C)ccc3n2)cc1	not fulfilled
O=c1[nH]c(-c2ccc(Cl)cc2)cn1-c1ccc(-n2cc(-c3ccc(Cl)cc3)[nH]c2=O)cc1	fulfilled
COc1ccc2cc(-c3ccc(-c4ccc(C(=N)N)s4)s3)ccc2c1	not fulfilled
CCn1c2ccc(O)cc2c2c(C)c3c[n+](C(C)C)ccc3c(C)c21	not fulfilled
CS(=O)(=O)Nc1cc(-c2ccc3ncnc(Nc4ccc5c(cnn5Cc5cccnc5)c4)c3c2)cnc1Cl	not fulfilled
CC(=O)N/C(=C1/OC(C(O)C(O)C(O)CO)CN1C)[P+](c1ccccc1)(c1ccccc1)c1ccccc1 (stereo not given)	fulfilled
O=C1CC2C=CCN2C=C1NC(=O)C1CCCCC1 (stereo not given)	fulfilled

###

System: OVCAR-5 ovarian
Assay Summary: NCI-60 one-dose screen, 48 h (100 = growth as untreated, 0 = no growth, -100 = all killed)
Assay Context: 10 µM unless noted
This is part of a sample that, as a whole, favours compounds with a hit. Of some 83,000 tested, about 20% had one in any assay.

Compound	growth (%)
CCOC(=O)c1c2c(n3ccccc13)C(=O)c1ncccc1C2=O	42.2
CCn1cc(C(=O)N/N=C/c2ccc(Br)cc2)c(=O)c2cc(F)c(N3CCNC(C)C3)c(F)c21 (centres undefined)	94
CC[C@H](CC[C@@H](C)[C@H]1CC[C@H]2[C@@H]3CC[C@@H]4CC(=O)/C(=C\c5ccncc5)C[C@]4(C)[C@H]3CC[C@]12C)C(C)C	104
Cc1cc2nc(-c3c(-c4ccc(F)cc4)nc4sccn34)[nH]c2cc1C	111

###

System: SK-OV-3 ovarian
Assay Summary: NCI-60 one-dose screen, 48 h
Assay Context: 10 µM unless noted
This is part of a sample that, as a whole, favours compounds with a hit. Of some 83,000 tested, about 20% had one in any assay. Calls of active or inactive are those of the source. How the source made its calls: active means growth percent below 10; inactive means the rest.
Classes used: T = active, F = inactive

Structure As Smiles	Classification
Cn1cc(/C=C2/C(=O)Nc3ccccc32)c2ccccc21	F
O=C1C(Cl)=C(NCCN2CCOCC2)C(=O)c2ncccc21	F
CN1CCN(c2ccc(NC(=O)c3cncnc3Nc3ccc4c(ccn4Cc4cccc(F)c4)c3)cc2)CC1	F
Cc1ccc(C)n1/C=C/n1c(C)ccc1C	F
COc1cc2c(/C=C3\C(=O)Nc4ccccc43)c(C(=O)O)[nH]c2cc1C	F
CCOC(=O)c1c(-c2ccc(Cl)cc2)c(C#N)c2c(C#N)c(N)nn2c1N	F
CCN(C(=O)N1CCN(c2cc3c(cc2F)c(=O)c(C(=O)O)cn3C2CC2)CC1)c1nc(-c2ccc(C)cc2)cs1	T
O=C(Nc1ncc(Cc2ccccc2Cl)s1)c1cccs1	F
Cc1c2cnccc2c(C)c2c1c1cc(C3OCCCO3)ccc1n2C	T
Cc1ccc2[nH]c(-c3ccc(S(C)(=O)=O)cc3)c(/C=N/N=C(N)N)c2c1	F

###

Let's look at some compounds and their measured growth.
Tested on: OVCAR-4 ovarian
Assay Summary: NCI-60 one-dose screen, 48 h (100 = growth as untreated, 0 = no growth, -100 = all killed)
Assay Context: 10 µM unless noted
The panel holds about 83,000 compounds, 20% with a hit somewhere; the sample as a whole holds those more often. Calls of active or inactive are those of the source. The calls were made as follows: active = growth percent below 10; inactive = the rest.

Compound	growth
C=C(c1ccc(C(=O)O)cn1)c1cc2c(cc1C)C(C)(C)CCC2(C)C	85.2% (inactive)
COC1=CC(c2ccc[nH]2)=N/C1=C\c1[nH]c(C)c(CC(=O)OCc2ccccc2)c1C	10.5% (inactive)
CCNC(=O)Oc1ccc(/C(=C(/C)Cc2ccc(OC)cc2)c2ccc(OCCN3CCCCCC3)cc2)cc1	87.9% (inactive)
COc1ccc(C2=NN(C(=O)c3cc(OC)c(OC)c(OC)c3)C(c3ccc(N(C)C)cc3)C2)cc1 (stereo not drawn)	35.2% (inactive)
CC1(C)CCC(S(=O)(=O)c2ccc3c(c2)/C(=N\O)c2cc(S(=O)(=O)N4CCN(c5ccc(F)cc5O)CC4)ccc2-3)CC1	-94% (active)
Cn1cc(/C=C2/C(=O)Nc3ccccc32)c2ccccc21	86.2% (inactive)
COc1ccccc1-n1c(-c2cc(O)ccc2C)cn2c3c(=O)[nH]c(=O)n(C)c3nc12	98.2% (inactive)
CCN1C(=O)N(CC)C2C1NN=c1s/c(=C\c3cc4ccccc4[nH]3)c(=O)n12 (stereo not drawn)	32.9% (inactive)
N/C(=N\c1nc2ccccc2s1)NC(=NC1CCCCC1)NC1CCCCC1	26.7% (inactive)
N#Cc1nc2c(S(=O)(=O)c3ccccc3)c(N)n(Cc3cccnc3)c2nc1C#N	92.4% (inactive)
Cc1c2cc[nH]c(=O)c2c(C)c2c1[nH]c1ccc(OC(=O)c3ccccc3)cc12	62.5% (inactive)
COc1cccc(/C=C/C(=O)c2cc3c(N)c(C(=O)Nc4cccc(Cl)c4C)sc3nc2C)c1	38.1% (inactive)
C=C1C(=O)O[C@H]2[C@H]1CC/C(COC(=O)NCCCCCCCCNC(=O)OC/C1=C/CC[C@@]3(C)O[C@H]3[C@H]3OC(=O)C(=C)[C@@H]3CC1)=C\CC[C@@]1(C)O[C@@H]21	-82.9% (active)
CCN(C(=O)N1CCN(c2cc3c(cc2F)c(=O)c(C(=O)O)cn3C2CC2)CC1)c1nc(-c2ccc(C)cc2)cs1	31.5% (inactive)
COc1ccc2c(c1)c(-c1nc(-c3cn(C)c4ncccc34)cs1)cn2CCO	45.5% (inactive)
CC(=O)c1c(Nc2ccc(F)c(F)c2F)[nH]c2c(F)cc(F)cc2c1=O	12.1% (inactive)
Cc1ccc2[nH]c(-c3ccc(S(C)(=O)=O)cc3)c(/C=N/N=C(N)N)c2c1	90.7% (inactive)
O=C(CCCCNC(=O)c1cc(=O)c(O)co1)Nc1ccccc1	79.3% (inactive)
